System: pigweed, palmer
Assay: Test A preemergence
Type: in vivo, Amaranthus palmeri
Details: 500 g ai/ha, 0 to 100 scale (0 no effect, 100 complete control), 10 days
Overview of reported Plant response rating, Pigweed, Palmer across a group of compounds:
// response body must contain only the number

> print(dat)
                                smiles.code                         outcome.measure  endpoint.result
1  COc1ccc(-n2cnc(C)n2)cc1C(=O)N1C[C@H](C)Oc2c(Cl)cccc21  Plant response rating, Pigweed, Palmer              100

Lookup: Look up Plant response rating, Pigweed, Palmer: `CC(C)c1ncn(-c2ccc(O)c(C(=O)N3C[C@H](C)Oc4c(Cl)cccc43)c2)n1`
Found: 90

Lookup: // query Plant response rating, Pigweed, Palmer value for entry `Cc1ncn(-c2cccc(C(=O)N3C[C@H](C)Oc4c(C)cccc43)c2)n1`
Found: 60

Lookup: Fill in: Plant response rating, Pigweed, Palmer of `CCOc1ccc(-n2cnc(C(C)C)n2)cc1C(=O)N1C[C@H](C)Oc2c(Cl)cccc21` is ___
Found: 100

Lookup: I am curious: what Plant response rating, Pigweed, Palmer value has been reported for `CCc1ncn(-c2ccc(C)c(C(=O)N3C[C@H](C)Oc4c(C)cccc43)c2)n1` ?
Found: 100

Lookup: GET /values?readout=Plant response rating, Pigweed, Palmer&item= `Cc1cccc2c1O[C@@H](C)CN2C(=O)c1cc(-n2cncn2)ccc1Cl`
Found: 90

----------
Here the recorded Plant response rating, Wheat is given for each entry.
Test system: wheat
Assay: Test A preemergence
Assay type: in vivo, Triticum aestivum
Settings: 500 g ai/ha, visual injury after 10 days, 0 to 100 scale, 0 is no effect, 100 is complete control
From the text: […]
Form field (numeric): enter value without unit.

> print(dat)
                                   compound  tested.system               outcome.measure  endpoint.result
1  C[C@H]1CN(C(=O)c2cc(Br)cc(-n3cncn3)c2)c2cccc(Cl)c2O1 [Compound 114]          wheat  Plant response rating, Wheat               50
2  CC(C)c1ncn(-c2ccc(C#N)c(C(=O)N3C[C@H](C)Oc4c(Cl)cccc43)c2)n1 [Compound 140]          wheat  Plant response rating, Wheat               50
3  CC(C)c1ncn(-c2ccc(OCC(F)(F)F)c(C(=O)N3C[C@H](C)Oc4c(Cl)cccc43)c2)n1 [Compound 141]          wheat  Plant response rating, Wheat               30
4  CC(C)c1ncn(-c2cc(C(=O)N3C[C@H](C)Oc4c(Cl)cccc43)c3ccccc3c2)n1 [Compound 146]          wheat  Plant response rating, Wheat                0
5  Cc1ccc(-n2cnc(CO)n2)cc1C(=O)N1C[C@H](C)Oc2c(Cl)cccc21 [Compound 148]          wheat  Plant response rating, Wheat               90

Next compound, Plant response rating, Wheat to be filled in.
Lookup: Name the reported Plant response rating, Wheat value associated with the compound COCCc1ncn(-c2cccc(C(=O)N3C[C@H](C)Oc4c(C)cccc43)c2)n1 [Compound 113]
Found: 90

----------
Tested on: galium
Test: Test C postemergence
Type: in vivo, Galium aparine
Details: Postemergence, 125 g ai/ha; 0 to 100 scale (0 no effect, 100 complete control), 10 days
# key: entry, value: Plant response rating, Galium

> print(dat)
                                   compound  endpoint.result
1  COC(C)(C)c1ncn(-c2ccc(C)c(C(=O)N3C[C@H](C)Oc4c(Cl)cccc43)c2)n1 [Compound 343]              100
2  COC(C)c1ncn(-c2ccc(C)c(C(=O)N3CC(C)Oc4c(Cl)cccc43)c2)n1 (mixture of isomers) [Compound 359]              100
3  Cc1cccc2c1OC(C(F)(F)F)CN2C(=O)c1ccnc(-n2cnc(C(C)C)n2)c1 (single isomer, unassigned) [Compound 320]               50

Lookup: I would be grateful if you could share the reported Plant response rating, Galium for Cc1cccc2c1OC(C(F)(F)F)CN2C(=O)c1ccnc(-n2cnc(C(C)(C)C)n2)c1 (stereo not shown) [Compound 319] .
Found: 60

Lookup: Recorded Plant response rating, Galium of CC(C)c1ncn(-c2ccc(OS(=O)(=O)C(F)(F)F)c(C(=O)N3C[C@H](C)Oc4c(Cl)cccc43)c2)n1 [Compound 339] , please.
Found: 60

Lookup: Which measured Plant response rating, Galium value corresponds to CCOCC1CN(C(=O)c2cc(-n3cnc(C(C)(C)C)n3)ccc2OC)c2cccc(Cl)c2O1 (stereo not shown) [Compound 379] ?
Found: 70

Lookup: Which Plant response rating, Galium reading was recorded for the compound COc1ccc(-n2cnc(C3CC3)n2)cc1C(=O)N1C[C@H](C)Oc2c(Cl)cccc21 [Compound 324] ?
Found: 100
